These measurements were taken from patent US20170066759A1.

# assay_name: Test Example 11: BA test (oral absorbability)
# Assay type: in vivo
# reported_conditions: plasma; Mouse, oral administration 1 mg/kg
endpoint_label: bioavailability (%)
Give bare numbers, in %.

[[record]]
molecule = "Cc1nc(CO)sc1-c1csc(NC(=O)Cn2cc(Cl)cn2)n1 [Compound I-131]"
numeric_value = 61.4


Continue with the next molecule.
Problem: Given the molecule Cc1nc(C)c(-c2csc(NC(=O)Cc3ccc(S(C)(=O)=O)cc3)n2)s1 [Compound I-17] , what is its reported bioavailability?
Result: 54.6

----------
Task for the reader: assign each of the following molecules its reported pIC50.
# system_under_test: human TRPV4 (hTRPV4/CHO cells) (Homo sapiens, UniProt Q9HBA0)
# Construct: expressed in transfected cells; host or cells: CHO-K1
# Sequence (Q9HBA0 whole entry): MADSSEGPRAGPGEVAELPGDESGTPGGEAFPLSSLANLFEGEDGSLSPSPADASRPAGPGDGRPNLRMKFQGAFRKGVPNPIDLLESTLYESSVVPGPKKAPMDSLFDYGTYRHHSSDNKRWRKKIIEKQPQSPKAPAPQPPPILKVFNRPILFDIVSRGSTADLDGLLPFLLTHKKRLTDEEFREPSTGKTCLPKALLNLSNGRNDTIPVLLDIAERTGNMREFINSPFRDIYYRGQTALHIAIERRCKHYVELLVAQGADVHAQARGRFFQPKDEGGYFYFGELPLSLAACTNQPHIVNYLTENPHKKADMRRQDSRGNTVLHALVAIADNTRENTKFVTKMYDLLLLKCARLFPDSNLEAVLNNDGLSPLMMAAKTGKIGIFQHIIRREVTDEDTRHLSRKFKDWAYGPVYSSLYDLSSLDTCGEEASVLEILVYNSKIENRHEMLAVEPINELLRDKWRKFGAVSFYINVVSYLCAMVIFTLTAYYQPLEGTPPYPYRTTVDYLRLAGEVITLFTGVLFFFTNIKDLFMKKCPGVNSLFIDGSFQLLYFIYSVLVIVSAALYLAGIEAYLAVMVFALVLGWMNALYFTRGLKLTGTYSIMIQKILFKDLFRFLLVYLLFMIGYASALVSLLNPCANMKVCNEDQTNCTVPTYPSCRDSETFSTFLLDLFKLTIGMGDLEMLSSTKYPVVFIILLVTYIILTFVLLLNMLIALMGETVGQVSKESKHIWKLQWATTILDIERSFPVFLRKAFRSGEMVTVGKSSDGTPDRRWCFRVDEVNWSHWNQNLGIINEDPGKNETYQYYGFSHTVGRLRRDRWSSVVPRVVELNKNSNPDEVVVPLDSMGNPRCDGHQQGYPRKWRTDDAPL
# assay_name: Test Example 2: TRPV4 inhibitory activity (IC50 value), 4α-PDD stimulation, Fluo3 calcium fluorescence (FLIPR)
# Assay type: cell-based
# reported_conditions: Test Example 2, 4α-PDD stimulation, read-out: Test 2 IC50
pIC50: −log10 of the molar value.

Some entries whose results are on file:
[[record]]
smiles_repr = "O=C(Nc1nc(-c2ccc(Cl)s2)cs1)c1cccc(C(F)(F)F)c1"
result = "5.10 to 6.00"

[[record]]
smiles_repr = "c1ccc(Nc2nc(-c3cccs3)cs2)nc1"
result = "5.10 to 6.00"

[[record]]
smiles_repr = "C/C(=N\\Nc1nc(-c2cccs2)cs1)c1ccc(Cl)c(Cl)c1"
result = "5.10 to 6.00"

[[record]]
smiles_repr = "O=C(Nc1nc(-c2ccc(Br)s2)cs1)c1ccc(Br)s1"
result = "5.10 to 6.00"

[[record]]
smiles_repr = "O=C(CSc1ccccc1)Nc1nc(-c2ccc(Br)s2)cs1"
result = "5.10 to 6.00"

[[record]]
smiles_repr = "CC(=O)Nc1nc(-c2ccc(Br)s2)cs1"
result = "5.10 to 6.00"

[[record]]
smiles_repr = "Cc1cccc(Nc2nc(-c3sc(N)nc3C)cs2)c1"
result = "6.00 to 7.00"

[[record]]
smiles_repr = "COc1ccc(/C(C)=N/Nc2nc(-c3sc(C)nc3C)cs2)cc1"
result = "6.00 to 7.00"


Need pIC50 for each of these molecules.
1. O=C(Nc1nc(-c2cccs2)cs1)C1c2ccccc2Oc2ccccc21
2. Cc1ccc(-c2csc(NC(=O)COc3ccc(Br)cc3)n2)s1

Result:
5.10 to 6.00
6.00 to 7.00

----------
Exercise: for every item that follows, state its recorded pIC50.
# system_under_test: human TRPV4 (hTRPV4/CHO cells) (Homo sapiens, UniProt Q9HBA0)
# Construct: expressed in transfected cells; host or cells: CHO-K1
# assay_name: Test Example 1: TRPV4 inhibitory activity (IC50 value), 4α-PDD stimulation, Fluo4 calcium fluorescence (FLIPR TETRA)
# Type: cell-based
# reported_conditions: Test Example 1, 4α-PDD stimulation, read-out: Test 1 IC50
pIC50: −log10 of the molar value.

[[record]]
compound = "Cc1nc(C)c(-c2csc(NC(=O)Cn3cc(-c4ccccc4)cn3)n2)s1 [Compound I-134]"
result = "> 7.00"

[[record]]
compound = "Cc1nc(COCC(F)(F)F)sc1-c1csc(NC(=O)Cc2ccc(S(=O)(=O)C(F)(F)F)cc2)n1 [Compound I-460]"
result = "5.10 to 6.00"

[[record]]
compound = "Cc1nc(C(F)F)sc1-c1csc(NC(=O)C2CC2)n1 [Compound I-109]"
result = "5.10 to 6.00"

[[record]]
compound = "NC(=O)c1nc(CO)c(-c2csc(NC(=O)C3CN(Cc4ccc(C(F)(F)F)cc4)C3)n2)s1 [Compound I-325]"
result = "6.00 to 7.00"

[[record]]
compound = "Cc1nc(C)c(-c2csc(NC(=O)Cc3ccc(F)c(C#N)c3)n2)s1 [Compound I-78]"
result = "> 7.00"


// batch mode: one pIC50 value per listed entry
1. Cc1nc(C)c(-c2csc(NC(=O)Cc3cccc(S(=O)(=O)Nc4ccc(C(F)(F)F)cc4)c3)n2)s1 [Compound I-498]
2. Cc1nc(C)c(-c2csc(NC(=O)Cc3cc(O)cc(C(=O)N[C@H](c4ccccc4)C(F)(F)F)c3)n2)s1 [Compound I-511]
3. Cc1nc(C)c(-c2csc(NC(=O)Cc3ccc(S(=O)(=O)CC(F)F)cc3)n2)s1 [Compound I-143]
4. Cc1nc(C)c(-c2csc(NC(=O)Cc3cccc(Br)c3)n2)s1 [Compound I-408]
5. Cc1nc(C)c(-c2csc(NCCOc3ccccc3)n2)s1 [II-47]
6. Cc1nc(C)c(-c2csc(NC(=O)Cn3cc(Br)cn3)n2)s1 [Compound I-132]
7. Cc1nc(C(C)O)sc1-c1csc(NC(=O)[C@@H]2C[C@@H](c3ccccc3)CN2C(=O)C(F)(F)F)n1 (stereo partly shown) [Compound I-476]
8. Cc1nc(C)c(-c2csc(NC(=O)Cc3ccc(Br)cc3)n2)s1 [Compound I-225]

Result:
1: > 7.00; 2: 5.10 to 6.00; 3: 6.00 to 7.00; 4: > 7.00; 5: 6.00 to 7.00; 6: > 7.00; 7: > 7.00; 8: > 7.00

Provide the reported pIC50 of each entry below, same order.
1. Cc1nc(CO)sc1-c1csc(NC(=O)C2CN(S(=O)(=O)c3ccccc3C(F)(F)F)C2)n1 [Compound I-305]
2. Cc1nc(C)c(-c2csc(NC(=O)Cc3cccc(S(=O)(=O)Nc4ccccc4F)c3)n2)s1 [Compound I-501]
3. CO[C@H]1C[C@H](C(=O)Nc2nc(-c3sc(C)nc3C)cs2)C1 [Compound I-268]

Result:
6.00 to 7.00
> 7.00
6.00 to 7.00
